Cited source: paper PMC11996864

target: CYP2C9 (Homo sapiens)
MEASURED PARAMETER: IC50 (µM)
Write the answer as a number in µM, unit excluded.

# query: IC50 of entry O=S(=O)(NCc1ccc2c(c1)OCO2)c1ccc(Cc2ccc(S(=O)(=O)NCc3ccc4c(c3)OCO4)cc2)cc1
21

* * *

molecular target: INSR (Homo sapiens, UniProt P06213)
Sequence (P06213 28-1382): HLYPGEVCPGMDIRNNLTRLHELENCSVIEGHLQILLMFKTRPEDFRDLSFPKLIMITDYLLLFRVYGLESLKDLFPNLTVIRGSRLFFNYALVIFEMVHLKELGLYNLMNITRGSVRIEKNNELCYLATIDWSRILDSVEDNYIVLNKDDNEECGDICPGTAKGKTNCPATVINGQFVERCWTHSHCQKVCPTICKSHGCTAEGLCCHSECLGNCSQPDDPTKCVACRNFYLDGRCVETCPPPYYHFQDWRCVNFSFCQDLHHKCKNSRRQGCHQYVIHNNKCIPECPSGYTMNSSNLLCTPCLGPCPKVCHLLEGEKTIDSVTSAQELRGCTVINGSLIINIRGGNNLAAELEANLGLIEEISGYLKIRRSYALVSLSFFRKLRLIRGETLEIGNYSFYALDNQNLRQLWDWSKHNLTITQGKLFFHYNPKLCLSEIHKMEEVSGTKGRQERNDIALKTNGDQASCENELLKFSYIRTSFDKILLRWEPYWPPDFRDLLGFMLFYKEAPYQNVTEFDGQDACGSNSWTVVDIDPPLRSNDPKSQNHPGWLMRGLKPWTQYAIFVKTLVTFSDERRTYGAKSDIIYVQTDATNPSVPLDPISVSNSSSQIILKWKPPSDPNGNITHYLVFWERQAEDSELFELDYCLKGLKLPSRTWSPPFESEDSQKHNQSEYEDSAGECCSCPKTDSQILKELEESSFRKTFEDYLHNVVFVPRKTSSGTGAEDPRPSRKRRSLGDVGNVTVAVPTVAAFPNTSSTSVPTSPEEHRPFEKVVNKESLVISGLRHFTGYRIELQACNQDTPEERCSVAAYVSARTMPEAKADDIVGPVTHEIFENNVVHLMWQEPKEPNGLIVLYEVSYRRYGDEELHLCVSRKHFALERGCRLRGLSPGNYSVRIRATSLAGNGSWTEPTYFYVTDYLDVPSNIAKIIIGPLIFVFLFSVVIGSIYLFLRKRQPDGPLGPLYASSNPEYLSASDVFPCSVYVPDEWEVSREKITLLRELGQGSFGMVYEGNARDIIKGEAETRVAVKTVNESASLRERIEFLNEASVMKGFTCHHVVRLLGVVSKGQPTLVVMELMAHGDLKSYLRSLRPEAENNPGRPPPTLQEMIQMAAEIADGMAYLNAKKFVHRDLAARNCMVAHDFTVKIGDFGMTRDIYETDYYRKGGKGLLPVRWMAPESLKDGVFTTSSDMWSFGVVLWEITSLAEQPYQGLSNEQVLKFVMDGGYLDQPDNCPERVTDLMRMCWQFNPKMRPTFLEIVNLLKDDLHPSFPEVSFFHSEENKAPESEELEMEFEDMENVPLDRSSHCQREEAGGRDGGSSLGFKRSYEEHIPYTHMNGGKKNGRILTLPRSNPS
MEASURED PARAMETER: IC50

Which IC50 value belongs to O=S(=O)(NCc1ccc2c(c1)OCO2)c1ccc(Cc2ccc(S(=O)(=O)NCc3ccc4c(c3)OCO4)cc2)cc1 ?
> 10 µM

* * *

Experiment: In vivo pharmacokinetics, plasma LC-MS/MS
Settings: male, CD-1, mouse, plasma, iv; mice, 5 mg/kg i.v.; read-out: terminal half-life (t1/2) (converted)
Experimental: Pharmacokinetic and cytochrome P450 inhibition studies. Studies were performed with the assistance of Touchstone Biosciences (Plymouth Meeting, Pennsylvania). For pharmacokinetic bioanalysis, male CD-1 mice were fasted overnight before being dosed with M1i-124 via oral gavage (20mg/kg), intraperitoneal injection in the lower right quadrant of the abdomen (20 mg/kg), or intravenous tail vein injection (5 mg/kg). […] The plasma concentration of the compound was determined using LC-MS/MS analysis. […]
MEASURED PARAMETER: half-life (h)
Write the value in h as a bare number.

Give its half-life value. Item: O=S(=O)(NCc1ccc2c(c1)OCO2)c1ccc(Cc2ccc(S(=O)(=O)NCc3ccc4c(c3)OCO4)cc2)cc1
8.72

* * *

biological target: ROCK1 (Homo sapiens, UniProt Q13464)
Sequence (Q13464 whole entry): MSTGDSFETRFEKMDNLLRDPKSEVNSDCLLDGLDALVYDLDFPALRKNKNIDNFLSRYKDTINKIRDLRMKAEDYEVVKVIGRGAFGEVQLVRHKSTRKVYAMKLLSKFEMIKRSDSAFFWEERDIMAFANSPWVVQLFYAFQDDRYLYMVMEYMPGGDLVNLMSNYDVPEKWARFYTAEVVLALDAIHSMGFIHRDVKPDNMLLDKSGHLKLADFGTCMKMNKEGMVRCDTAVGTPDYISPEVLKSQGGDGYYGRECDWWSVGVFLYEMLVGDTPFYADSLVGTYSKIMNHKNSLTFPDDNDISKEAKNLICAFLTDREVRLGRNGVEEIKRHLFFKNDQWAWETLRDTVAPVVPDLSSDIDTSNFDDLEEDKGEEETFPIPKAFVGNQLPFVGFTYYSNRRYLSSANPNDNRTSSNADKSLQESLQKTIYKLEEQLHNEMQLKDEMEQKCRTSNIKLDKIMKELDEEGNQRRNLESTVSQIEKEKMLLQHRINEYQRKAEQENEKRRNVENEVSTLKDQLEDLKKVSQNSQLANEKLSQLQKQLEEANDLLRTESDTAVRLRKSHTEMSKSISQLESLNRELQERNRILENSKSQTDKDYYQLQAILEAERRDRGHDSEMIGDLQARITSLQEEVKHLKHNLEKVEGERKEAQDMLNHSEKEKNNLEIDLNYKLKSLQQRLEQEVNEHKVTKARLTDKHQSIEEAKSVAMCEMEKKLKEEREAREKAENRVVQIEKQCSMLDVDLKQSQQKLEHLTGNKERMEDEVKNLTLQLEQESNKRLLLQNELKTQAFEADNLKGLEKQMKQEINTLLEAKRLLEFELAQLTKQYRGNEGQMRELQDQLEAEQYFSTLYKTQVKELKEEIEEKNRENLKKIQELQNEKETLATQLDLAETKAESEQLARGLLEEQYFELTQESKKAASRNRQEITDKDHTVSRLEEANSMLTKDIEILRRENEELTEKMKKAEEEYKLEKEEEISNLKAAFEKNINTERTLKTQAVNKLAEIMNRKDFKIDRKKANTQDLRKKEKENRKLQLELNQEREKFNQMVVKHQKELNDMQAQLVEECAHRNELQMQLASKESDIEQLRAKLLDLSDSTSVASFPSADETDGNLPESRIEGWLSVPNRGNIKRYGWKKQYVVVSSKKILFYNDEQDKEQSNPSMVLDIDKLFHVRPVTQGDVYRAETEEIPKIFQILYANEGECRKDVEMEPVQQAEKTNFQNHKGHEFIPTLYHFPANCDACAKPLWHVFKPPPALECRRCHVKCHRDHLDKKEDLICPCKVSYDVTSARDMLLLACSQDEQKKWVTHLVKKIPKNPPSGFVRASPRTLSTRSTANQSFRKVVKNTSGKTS
pIC50: −log10 of the molar value.
MEASURED PARAMETER: pIC50

Which value of pIC50 has been reported for O=S(=O)(NCc1ccc2c(c1)OCO2)c1ccc(Cc2ccc(S(=O)(=O)NCc3ccc4c(c3)OCO4)cc2)cc1 in the records?
< 5.00

* * *

assay: In vivo pharmacokinetics, plasma LC-MS/MS; details: male, CD-1, mouse, plasma, po, 20 mg/kg, PO; 0.25 hours; read-out: Plasma concentration (PO)
MEASURED PARAMETER: concentration at 0.25 h (ng/mL)
Write it as a number; the unit ng/mL goes unstated.

Given the molecule O=S(=O)(NCc1ccc2c(c1)OCO2)c1ccc(Cc2ccc(S(=O)(=O)NCc3ccc4c(c3)OCO4)cc2)cc1 [M1i-124] , what is its reported concentration at 0.25 h?
78.2

* * *

Reported pIC50 values are given for each entry in this list.
target: BCL10-MALT1 interaction (Homo sapiens, UniProt Q9UDY8); construct: GST-tagged recombinant human full-length MALT1 protein in solution; NBP1-99064 (BCL10); test: ELISA-based BCL10-MALT1 protein-protein interaction assay; conditions: MALT1 preincubated 1 hour with compound; read-out: IC50, inhibition of MALT1 binding to immobilized BCL10
Sequence (Q9UDY8 1-813 isoform Q9UDY8-2): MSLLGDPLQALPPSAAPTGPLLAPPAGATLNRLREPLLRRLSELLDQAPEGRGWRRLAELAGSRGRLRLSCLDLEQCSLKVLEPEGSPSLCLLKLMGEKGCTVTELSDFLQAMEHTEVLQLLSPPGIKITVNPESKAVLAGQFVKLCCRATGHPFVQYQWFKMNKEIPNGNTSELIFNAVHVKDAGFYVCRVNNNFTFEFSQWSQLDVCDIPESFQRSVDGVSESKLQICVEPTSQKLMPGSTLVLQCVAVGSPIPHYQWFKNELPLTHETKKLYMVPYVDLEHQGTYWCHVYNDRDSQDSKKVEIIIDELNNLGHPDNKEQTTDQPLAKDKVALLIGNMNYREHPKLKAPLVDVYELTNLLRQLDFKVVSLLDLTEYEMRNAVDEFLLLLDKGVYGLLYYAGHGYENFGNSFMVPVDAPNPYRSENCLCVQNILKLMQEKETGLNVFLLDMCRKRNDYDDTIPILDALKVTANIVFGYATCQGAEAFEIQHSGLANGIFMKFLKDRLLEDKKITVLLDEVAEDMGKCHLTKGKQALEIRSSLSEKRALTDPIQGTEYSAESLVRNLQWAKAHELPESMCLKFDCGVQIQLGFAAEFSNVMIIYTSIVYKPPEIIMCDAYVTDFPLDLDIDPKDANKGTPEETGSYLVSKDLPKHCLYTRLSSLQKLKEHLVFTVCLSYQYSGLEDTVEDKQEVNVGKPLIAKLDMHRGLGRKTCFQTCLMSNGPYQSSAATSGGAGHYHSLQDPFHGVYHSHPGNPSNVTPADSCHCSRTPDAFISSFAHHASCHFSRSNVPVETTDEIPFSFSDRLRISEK
The read-out pIC50 is expressed as -log10 of concentration in moles per litre.

> print(dat)
                                   compound  measurement
1  O=S(=O)(NCc1ccc2c(c1)OCO2)c1ccc(Cc2ccc(S(=O)(=O)NCc3ccc4c(c3)OCO4)cc2)cc1 [M1i-124]         4.80

Read the next record carefully.
Give BCL10-MALT1 interaction (Homo sapiens, UniProt Q9UDY8) pIC50 for COc1ccc(CNS(=O)(=O)c2ccc(Cc3ccc(S(=O)(=O)NCc4ccc(OC)cc4)cc3)cc2)cc1 [M1i-124d1]
4.47

* * *

assay: In vivo pharmacokinetics, plasma LC-MS/MS; conditions: male, CD-1, mouse, plasma, ip, 20 mg/kg, IP; 4 hours; read-out: Plasma concentration (IP)
MEASURED PARAMETER: concentration at 4 h (ng/mL)
Return type: number; implicit unit ng/mL.

# concentration at 4 h lookup, item O=S(=O)(NCc1ccc2c(c1)OCO2)c1ccc(Cc2ccc(S(=O)(=O)NCc3ccc4c(c3)OCO4)cc2)cc1 [M1i-124]
126

* * *

molecular target: hERG (Homo sapiens)
Sequence (Q12809 whole entry): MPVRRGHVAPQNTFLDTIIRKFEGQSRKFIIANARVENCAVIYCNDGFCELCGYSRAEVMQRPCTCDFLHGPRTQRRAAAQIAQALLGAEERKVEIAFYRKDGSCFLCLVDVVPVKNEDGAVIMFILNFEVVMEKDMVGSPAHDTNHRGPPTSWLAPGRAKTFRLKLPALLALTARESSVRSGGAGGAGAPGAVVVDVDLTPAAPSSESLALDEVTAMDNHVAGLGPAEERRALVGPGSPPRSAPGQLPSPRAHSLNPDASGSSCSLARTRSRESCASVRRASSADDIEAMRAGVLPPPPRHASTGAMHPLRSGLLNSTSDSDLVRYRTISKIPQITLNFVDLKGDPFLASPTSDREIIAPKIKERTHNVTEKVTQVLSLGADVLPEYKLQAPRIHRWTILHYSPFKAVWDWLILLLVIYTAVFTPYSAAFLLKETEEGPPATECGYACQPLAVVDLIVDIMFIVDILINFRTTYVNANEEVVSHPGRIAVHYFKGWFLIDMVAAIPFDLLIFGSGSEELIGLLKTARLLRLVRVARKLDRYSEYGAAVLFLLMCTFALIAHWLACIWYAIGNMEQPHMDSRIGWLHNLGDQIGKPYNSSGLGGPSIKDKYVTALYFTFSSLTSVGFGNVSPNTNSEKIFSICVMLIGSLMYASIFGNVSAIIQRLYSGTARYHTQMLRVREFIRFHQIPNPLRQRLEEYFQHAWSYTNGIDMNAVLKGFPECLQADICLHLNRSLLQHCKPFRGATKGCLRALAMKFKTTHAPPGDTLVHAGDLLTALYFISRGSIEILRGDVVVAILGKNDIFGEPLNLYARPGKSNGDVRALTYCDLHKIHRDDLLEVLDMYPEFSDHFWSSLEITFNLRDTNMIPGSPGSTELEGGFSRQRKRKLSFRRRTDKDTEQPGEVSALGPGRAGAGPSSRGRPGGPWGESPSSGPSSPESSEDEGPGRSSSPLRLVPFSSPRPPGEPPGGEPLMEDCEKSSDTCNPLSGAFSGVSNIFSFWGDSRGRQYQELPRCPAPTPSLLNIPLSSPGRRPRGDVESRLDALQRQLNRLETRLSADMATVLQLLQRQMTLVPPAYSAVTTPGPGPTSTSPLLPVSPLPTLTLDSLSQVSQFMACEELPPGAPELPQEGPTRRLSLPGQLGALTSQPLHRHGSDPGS
MEASURED PARAMETER: IC50

Item O=S(=O)(NCc1ccc2c(c1)OCO2)c1ccc(Cc2ccc(S(=O)(=O)NCc3ccc4c(c3)OCO4)cc2)cc1 has what recorded IC50?
> 10 µM

* * *

target: CYP3A4M (Homo sapiens)
MEASURED PARAMETER: IC50 (µM)
Supply the numeric figure in µM, leaving out any unit text.

So what's the measured IC50 for this one? O=S(=O)(NCc1ccc2c(c1)OCO2)c1ccc(Cc2ccc(S(=O)(=O)NCc3ccc4c(c3)OCO4)cc2)cc1 [M1i-124]
28

* * *

experiment: In vivo pharmacokinetics, plasma LC-MS/MS; conditions: male, CD-1, mouse, plasma, ip, 20 mg/kg, IP; 0.083 hours; read-out: Plasma concentration (IP)
MEASURED PARAMETER: concentration at 0.083 h (ng/mL)
Report the figure in ng/mL without appending any unit label.

Entry under review: O=S(=O)(NCc1ccc2c(c1)OCO2)c1ccc(Cc2ccc(S(=O)(=O)NCc3ccc4c(c3)OCO4)cc2)cc1 . Reported concentration at 0.083 h?
451

* * *

assay: In vivo pharmacokinetics, plasma LC-MS/MS; conditions: male, CD-1, mouse, plasma, po, 20 mg/kg, PO; 2 hours; read-out: Plasma concentration (PO)
MEASURED PARAMETER: concentration at 2 h
The number alone won't do; follow it with the unit.

So what's the measured concentration at 2 h for this one? O=S(=O)(NCc1ccc2c(c1)OCO2)c1ccc(Cc2ccc(S(=O)(=O)NCc3ccc4c(c3)OCO4)cc2)cc1
17.7 ng/mL

* * *

Experiment: In vivo pharmacokinetics, plasma LC-MS/MS
Conditions: male, CD-1, mouse, plasma, ip, 20 mg/kg, IP; 2 hours; read-out: Plasma concentration (IP)
Method: Pharmacokinetic and cytochrome P450 inhibition studies. Studies were performed with the assistance of Touchstone Biosciences (Plymouth Meeting, Pennsylvania). For pharmacokinetic bioanalysis, male CD-1 mice were fasted overnight before being dosed with M1i-124 via oral gavage (20mg/kg), intraperitoneal injection in the lower right quadrant of the abdomen (20 mg/kg), or intravenous tail vein injection (5 mg/kg). […] The plasma concentration of the compound was determined using LC-MS/MS analysis. […]
MEASURED PARAMETER: concentration at 2 h (ng/mL)
# number only, unit ng/mL dropped from output

Which concentration at 2 h value belongs to O=S(=O)(NCc1ccc2c(c1)OCO2)c1ccc(Cc2ccc(S(=O)(=O)NCc3ccc4c(c3)OCO4)cc2)cc1 ?
259

* * *

assay: In vivo pharmacokinetics, plasma LC-MS/MS; conditions: male, CD-1, mouse, plasma, ip, 20 mg/kg, IP; 24 hours; read-out: Plasma concentration (IP)
MEASURED PARAMETER: concentration at 24 h

What does the data say about its concentration at 24 h? Entry: O=S(=O)(NCc1ccc2c(c1)OCO2)c1ccc(Cc2ccc(S(=O)(=O)NCc3ccc4c(c3)OCO4)cc2)cc1
9.14 ng/mL

* * *

test: In vivo pharmacokinetics, plasma LC-MS/MS; conditions: male, CD-1, mouse, plasma, iv, 5 mg/kg, IV; 1 hours; read-out: Plasma concentration (IV)
MEASURED PARAMETER: concentration at 1 h (ng/mL)
Write the value in ng/mL as a bare number.

Suppose we examine the molecule O=S(=O)(NCc1ccc2c(c1)OCO2)c1ccc(Cc2ccc(S(=O)(=O)NCc3ccc4c(c3)OCO4)cc2)cc1 ; what concentration at 1 h value has been reported?
122

* * *

experiment: In vivo pharmacokinetics, plasma LC-MS/MS; conditions: male, CD-1, mouse, plasma, po, 20 mg/kg, PO; 4 hours; read-out: Plasma concentration (PO)
MEASURED PARAMETER: concentration at 4 h (ng/mL)
Just the number in ng/mL, nothing appended.

Given the compound O=S(=O)(NCc1ccc2c(c1)OCO2)c1ccc(Cc2ccc(S(=O)(=O)NCc3ccc4c(c3)OCO4)cc2)cc1 [M1i-124] , what is its reported concentration at 4 h?
11.5

* * *

test: In vivo pharmacokinetics, plasma LC-MS/MS; conditions: male, CD-1, mouse, plasma, po, 20 mg/kg, PO; 6 hours; read-out: Plasma concentration (PO)
MEASURED PARAMETER: concentration at 6 h (ng/mL)
// units = ng/mL; emit number, no label

Value lookup for concentration at 6 h; key = O=S(=O)(NCc1ccc2c(c1)OCO2)c1ccc(Cc2ccc(S(=O)(=O)NCc3ccc4c(c3)OCO4)cc2)cc1 [M1i-124]
13.1

* * *

target: CYP3A4T (Homo sapiens, UniProt P08684)
MEASURED PARAMETER: pIC50
Value format note: pIC50 is -log10 of concentration (mol/L); just state the number.

Look up pIC50 for this compound: O=S(=O)(NCc1ccc2c(c1)OCO2)c1ccc(Cc2ccc(S(=O)(=O)NCc3ccc4c(c3)OCO4)cc2)cc1
4.40

* * *

experiment: In vivo pharmacokinetics, plasma LC-MS/MS; conditions: male, CD-1, mouse, in vivo, po, 20 mg/kg, PO; 4 hours; read-out: Plasma concentration (PO)
MEASURED PARAMETER: concentration at 4 h
Kindly write the number and append the unit.

If you can, please state the reported concentration at 4 h value of O=S(=O)(NCc1ccc2c(c1)OCO2)c1ccc(Cc2ccc(S(=O)(=O)NCc3ccc4c(c3)OCO4)cc2)cc1 .
15.4 ng/mL
